These data points were gathered from paper PMC2756145.

# MEASUREMENT_TARGET: T1, Pot1pN (Schizosaccharomyces pombe, UniProt O13988 1-185)
# T1 sequence: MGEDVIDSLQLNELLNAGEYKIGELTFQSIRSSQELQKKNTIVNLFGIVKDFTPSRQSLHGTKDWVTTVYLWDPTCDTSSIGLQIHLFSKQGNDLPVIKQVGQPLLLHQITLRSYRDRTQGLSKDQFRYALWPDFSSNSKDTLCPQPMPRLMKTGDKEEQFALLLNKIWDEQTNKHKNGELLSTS
# MEASUREMENT_PROTOCOL: filter binding
QUANTITY: Kd (nM)

BINDER: GGTTAC (ssDNA) [6mer]
READOUT_NUMBER: 30
